Source listed as paper PMC3662962.

- measurement_target: RsbU phosphatase domain (Mycobacterium tuberculosis)
- Sequence (P9WLZ7 190-397): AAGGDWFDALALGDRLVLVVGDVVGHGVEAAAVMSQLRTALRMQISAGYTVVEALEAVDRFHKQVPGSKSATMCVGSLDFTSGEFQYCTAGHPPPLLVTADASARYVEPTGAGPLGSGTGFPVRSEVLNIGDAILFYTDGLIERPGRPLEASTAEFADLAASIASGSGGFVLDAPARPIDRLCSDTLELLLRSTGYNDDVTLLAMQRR
outcome_measure: Ki (nM)
Enter your answer as a number in nM; do not include the unit.

QUERY: Find the recorded Ki belonging to O=P(O)(O)O [inorganic phosphate] and report it.
RESULT: 320
